assay.system: Protein deacetylase HDAC6 (Homo sapiens, UniProt Q9UBN7)
Sequence (Q9UBN7 whole entry): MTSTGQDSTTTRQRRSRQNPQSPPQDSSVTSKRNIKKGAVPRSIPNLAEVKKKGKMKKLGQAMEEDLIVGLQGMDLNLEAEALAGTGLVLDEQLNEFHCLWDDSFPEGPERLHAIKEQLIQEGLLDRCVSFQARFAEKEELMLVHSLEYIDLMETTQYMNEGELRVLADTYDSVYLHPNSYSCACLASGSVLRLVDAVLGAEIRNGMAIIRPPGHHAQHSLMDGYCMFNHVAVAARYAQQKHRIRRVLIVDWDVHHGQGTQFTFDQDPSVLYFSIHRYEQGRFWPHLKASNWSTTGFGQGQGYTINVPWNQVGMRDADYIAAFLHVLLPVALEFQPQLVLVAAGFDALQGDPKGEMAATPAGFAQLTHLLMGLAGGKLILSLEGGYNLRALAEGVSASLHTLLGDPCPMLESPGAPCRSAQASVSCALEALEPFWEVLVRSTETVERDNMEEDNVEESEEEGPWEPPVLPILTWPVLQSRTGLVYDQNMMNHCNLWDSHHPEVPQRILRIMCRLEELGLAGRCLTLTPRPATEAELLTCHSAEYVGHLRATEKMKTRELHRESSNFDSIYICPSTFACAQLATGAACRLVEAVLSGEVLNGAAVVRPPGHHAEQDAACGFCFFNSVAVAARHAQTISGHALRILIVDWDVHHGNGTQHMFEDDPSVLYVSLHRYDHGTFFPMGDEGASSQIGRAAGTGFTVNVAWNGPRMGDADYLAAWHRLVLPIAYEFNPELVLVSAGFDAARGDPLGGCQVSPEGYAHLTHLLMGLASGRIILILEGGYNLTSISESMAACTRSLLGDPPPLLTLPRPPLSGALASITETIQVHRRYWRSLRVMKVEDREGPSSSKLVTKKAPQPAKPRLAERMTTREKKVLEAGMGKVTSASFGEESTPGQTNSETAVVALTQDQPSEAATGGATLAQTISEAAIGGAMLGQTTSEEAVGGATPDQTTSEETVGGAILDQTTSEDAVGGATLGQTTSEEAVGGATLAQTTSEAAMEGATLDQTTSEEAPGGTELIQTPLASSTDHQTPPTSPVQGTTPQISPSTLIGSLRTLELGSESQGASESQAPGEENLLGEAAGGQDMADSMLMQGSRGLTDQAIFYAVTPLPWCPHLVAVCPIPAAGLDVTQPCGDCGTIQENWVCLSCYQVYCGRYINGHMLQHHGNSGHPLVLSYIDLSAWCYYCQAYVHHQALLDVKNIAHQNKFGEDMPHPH
pIC50: −log10 of the molar value.
measurement.kind: pIC50

{"compound.structure": "CN1Cc2cc(C(=O)NO)ccc2CN1Cc1ccccc1", "assay.system": "Protein deacetylase HDAC6 (Homo sapiens, UniProt Q9UBN7)", "pIC50": 9.00}
{"compound.structure": "O=C(NO)c1cc(F)c2c(c1)CCN(C1CCC1)C2", "assay.system": "Protein deacetylase HDAC6 (Homo sapiens, UniProt Q9UBN7)", "pIC50": 9.00}
{"compound.structure": "Cn1c2c(c3ccccc31)CCN(Cc1ccc(C(=O)NO)cc1F)C2", "assay.system": "Protein deacetylase HDAC6 (Homo sapiens, UniProt Q9UBN7)", "pIC50": 9.00}
